# Test Details: Volatility of perfuming compounds (Tables 4 to 10), with top/middle/bottom note type
# Format: physicochemical
# Conditions Used: Table 6, perfuming compounds having a fruity note
Structures can show the parent of a compound that is named as a salt.
Label 1 when Volatility >= 3000 μg/l air; otherwise -1.

molecule="CCOC(=O)C(C)C [ETHYL ISOBUTYRATE]" discrete_label=1
molecule=CC(=O)OC/C=C(/C)CCC=C(C)C discrete_label=-1
molecule="CC/C=C\\CCOC=O [(Z)-3-HEXENYL FORMATE]" discrete_label=1
molecule="CCCCCCCCC1CCC(=O)O1 (racemic) [(+−)-5-octyldihydro-2(3H)-furanone]" discrete_label=-1

###

# Test Details: Odor threshold and odor value of perfuming compounds (Tables 4 to 10)
# Conditions Used: Table 10, woody note
Value Kind: Odor Threshold (μg/l air)

molecule="CC(=O)OC1CCC2C(C)(C)CCCC2(C)C1 (centres unmarked)" reported_result=4.19E−04
molecule="O=C/C=C/c1ccccc1 [(E)-3-PHENYL-2-PROPENAL]" reported_result=1.36E−03
molecule="CC(=O)O[C@@H]1CC[C@@H]2C(C)(C)CCC[C@@]2(C)C1 (racemic)" reported_result=4.19E−04
molecule=COc1ccc(OC)c(C(C)(C)C)c1 reported_result=1.65E−02
molecule=CC1(C)CCC[C@@]2(C)[C@H]1CC[C@@]1(C)OCC[C@@H]21 reported_result=2.16E−03
molecule="CC(=O)/C(C)=C(/C)C(C)C(C)(C)C (racemic)" reported_result=7.24E−02
molecule="N#C/C=C/c1ccccc1 [(E)-3-PHENYL-2-PROPENENITRILE]" reported_result=8.97E−05
molecule=CC/C(=C\C[C@H]1CC=C(C)C1(C)C)CO reported_result=2.41E−05
molecule="C/C=C/C(=O)C1C(C)=CCCC1(C)C (racemic)" reported_result=1.04E−04
molecule="CC1=CCC(CCC(C)C(C)O)C1(C)C (racemic)" reported_result=1.52E−03
molecule="CC1CC[C@@]2(O1)C(C)(C)CCC[C@@]2(C)O (mixture of isomers)" reported_result=5.15E−04

###

# Test Details: Volatility of perfuming compounds (Tables 4 to 10), with top/middle/bottom note type
# Type: physicochemical
# Conditions Used: Table 6, perfuming compounds having a fruity note
Kindly return TRUE if reported Volatility is no lower than 50 μg/l air; return FALSE if it is lower.

molecule="CCCCCC1CCC(=O)O1 (racemic) [(+−)-4-NONANOLIDE]" discrete_label=FALSE
molecule=CC(C)(C)Cc1cccnc1 discrete_label=TRUE
molecule="C=CCOC(=O)COc1ccccc1 [ALLYL PHENOXYACETATE]" discrete_label=FALSE
molecule="CCOC(=O)Cc1ccccc1 [ETHYL PHENYLACETATE]" discrete_label=TRUE
molecule="CC(C)CC(=O)OCc1ccccc1 [BENZYL 3-METHYLBUTANOATE]" discrete_label=TRUE
molecule="CCCC(S)CCOC(C)=O (racemic) [(+−)-3-mercaptohexyl acetate]" discrete_label=TRUE
molecule="CC/C=C\\CCOC(=O)C(C)CC (racemic) [(+−)-(Z)-3-HEXENYL 2-METHYLBUTANOATE]" discrete_label=TRUE
molecule="CC(=O)OC(CC(C)C)CC(C)C [1-ISOBUTYL-3-METHYLBUTYL ACETATE]" discrete_label=TRUE
molecule="CC1=CCC2C(C1)C1CC2C2(C1)OC2C (racemic)" discrete_label=FALSE
molecule="CCCCCCOC(=O)c1ccccc1O [HEXYL 2-HYDROXYBENZOATE]" discrete_label=FALSE
molecule="CCC(=O)OCc1ccccc1 [BENZYL PROPANOATE]" discrete_label=TRUE
molecule="CC(=O)OCCC1CCCCC1 [2-CYCLOHEXYL ETHYL ACETATE]" discrete_label=TRUE
molecule="CC(C)=CCCC(C)C=O (racemic)" discrete_label=TRUE
molecule="C=CCOC(=O)CCCCCC [ALLYL HEPTANOATE]" discrete_label=TRUE
molecule="C=CCOC(=O)CCCCC [ALLYL HEXANOATE]" discrete_label=TRUE
molecule="CC(=O)CCc1ccc(O)cc1 [4-(4-HYDROXY-1-PHENYL)-2-BUTANONE]" discrete_label=FALSE
molecule="CCCCCCOC(=O)C(C)C [hexyl 2-methylpropanoate]" discrete_label=TRUE
molecule="CC1=CC[C@H](C(C)CC2CCCC2=O)CC1 (stereo partly shown)" discrete_label=FALSE
molecule="COC(=O)C=C1CCCC1 [methyl cyclopentylideneacetate]" discrete_label=TRUE
molecule="C=C(C)CC(C(C)=O)C(=O)OCC (racemic)" discrete_label=TRUE
molecule=CC(=O)CCc1ccccc1 discrete_label=TRUE

Source: patent US20240301319A1
